- tested-target: human ether-à-go-go-related gene (hERG) potassium channel (human);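 further: peak tail current of the secondary pulse compared with the same well before compound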
- Sequence (Q12809 whole entry, looked up): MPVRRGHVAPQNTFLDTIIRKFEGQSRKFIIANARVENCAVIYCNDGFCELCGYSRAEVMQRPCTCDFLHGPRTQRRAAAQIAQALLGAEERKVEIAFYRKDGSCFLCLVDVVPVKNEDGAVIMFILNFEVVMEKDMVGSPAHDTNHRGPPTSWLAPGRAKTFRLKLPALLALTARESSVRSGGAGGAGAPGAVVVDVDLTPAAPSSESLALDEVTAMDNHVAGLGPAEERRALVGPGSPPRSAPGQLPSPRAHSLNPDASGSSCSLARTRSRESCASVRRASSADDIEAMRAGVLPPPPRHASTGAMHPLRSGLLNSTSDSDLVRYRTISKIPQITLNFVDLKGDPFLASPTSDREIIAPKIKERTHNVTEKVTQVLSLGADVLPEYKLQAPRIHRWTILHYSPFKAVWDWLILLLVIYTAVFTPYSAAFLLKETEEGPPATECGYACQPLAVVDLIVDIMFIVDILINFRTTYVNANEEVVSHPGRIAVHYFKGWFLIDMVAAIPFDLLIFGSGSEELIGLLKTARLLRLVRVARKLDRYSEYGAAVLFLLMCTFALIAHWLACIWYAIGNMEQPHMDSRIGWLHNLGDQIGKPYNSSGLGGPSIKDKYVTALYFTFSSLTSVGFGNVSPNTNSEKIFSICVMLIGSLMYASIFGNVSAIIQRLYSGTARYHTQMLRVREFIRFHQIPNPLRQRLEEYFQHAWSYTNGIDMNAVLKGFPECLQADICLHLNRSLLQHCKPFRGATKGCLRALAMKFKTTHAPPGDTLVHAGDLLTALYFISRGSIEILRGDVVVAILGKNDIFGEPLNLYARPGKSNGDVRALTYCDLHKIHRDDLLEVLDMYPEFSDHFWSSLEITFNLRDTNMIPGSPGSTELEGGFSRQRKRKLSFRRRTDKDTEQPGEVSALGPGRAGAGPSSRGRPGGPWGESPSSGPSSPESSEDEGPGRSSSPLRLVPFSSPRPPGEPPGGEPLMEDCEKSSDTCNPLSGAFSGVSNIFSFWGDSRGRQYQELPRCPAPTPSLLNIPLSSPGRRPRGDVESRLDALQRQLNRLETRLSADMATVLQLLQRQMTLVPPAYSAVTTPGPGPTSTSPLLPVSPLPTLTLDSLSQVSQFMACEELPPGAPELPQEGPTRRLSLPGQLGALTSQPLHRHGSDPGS
- assay-comment: primary screen, population patch clamp on CHO cells stably expressing hERG; higher = less effect of the substance
The campaign covered roughly 310,000 compounds. About 14,000 (4.5%) showed an effect of 50% or more. Effects have a minus sign here. The sample as a whole holds a higher share of strong results than the screen did.
observation-type: hERG current change (%, negative = inhibition) at 10uM
A complete answer gives the number followed by the unit.

Some compounds with known hERG current change (%, negative = inhibition) at 10uM results, for comparison:
compound	value
CCOC(=O)N1CCC(NC(=O)c2cc3c(-c4ccccc4F)nn(C)c3s2)CC1	13.5%
CC[C@H]1CC2CN3CCc4c([nH]c5ccccc45)C(C(=O)OC)(C2)C13.Cl (stereo partly drawn)	-2.97%
O=C(C1CCN(C2CCN(Cc3ccc4c(c3)CCO4)CC2)CC1)N1CCCC1	-43%
CN1C(C(=O)NCc2ccccc2)CC2Cn3c(nc4cc(Cl)c(Cl)cc43)C21 (stereo not drawn)	-65.6%
CCc1[nH]c(=S)c(C#N)c(-c2ccccc2)c1C(=O)OC	25.5%

Which measured hERG current change (%, negative = inhibition) at 10uM value corresponds to "CCCN(C#N)c1nc(NCC)nc(NC(C)C)n1" ?
-10.2%

Repeat with CC1CCCCN1CCNC(=O)c1cc2c(-c3ccccc3F)nn(C)c2s1 (stereo not drawn)
-56.1%

====

Known hERG current change (%, negative = inhibition) at 10uM of a selection of compounds
- tested-target: human ether-à-go-go-related gene (hERG) potassium channel (human);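 further: peak tail current of the secondary pulse compared with the same well before compound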
- assay-comment: primary screen, population patch clamp on CHO cells stably expressing hERG; higher = less effect of the substance
About 14,000 (4.5%) of roughly 310,000 compounds showed an effect of 50% or more. The effect is printed as a negative number. This is one part of a sample in which strong results are shown more often than they occur.
Your answer should be a plain number; it is taken to be in %.

smi	value
Cc1sc2nc(SCc3nc4ccccc4[nH]3)n(Cc3ccco3)c(=O)c2c1C	-9.15
COc1ccc(OC)c(S(=O)(=O)N2CCC(C(=O)N3CCN(c4ccc(F)cc4)CC3)CC2)c1	-78
Cc1cc(OC(=O)c2cccc(Cl)c2)c([N+](=O)[O-])c(=O)[nH]1	19.9
CCCn1c(SCC(=O)Nc2nccs2)nnc1-c1cccnc1	-0.265
N#Cc1nc(-c2ccc(F)cc2)oc1N1CCN(C(=O)c2ccco2)CC1	-75.2
COc1cccc(-c2nc(-c3ccccc3)no2)c1	1.72
Cc1cccc2sc(N(CCCN(C)C)C(=O)CCc3ccccc3)nc12.Cl	-54.1
COc1cccc2cc(C(=O)NCCN3CCOCC3)c(=O)oc12	12.9
COc1cc(/C=C/C(=O)O)ccc1OS(=O)(=O)c1c(C)cc(C)cc1C	-43.2
CC(C)c1ccc(N(CC(=O)N/N=C/c2ccc(OC3CSC3)cc2)S(=O)(=O)c2ccccc2)cc1	12.8

If you can, please state the reported hERG current change (%, negative = inhibition) at 10uM value of "CN(C)CCCN(C(=O)CCc1ccccc1)c1nc2ccc(Cl)cc2s1.Cl" .
-24.4

Also "N#Cc1nc(-c2ccccc2Cl)oc1N1CCN(C(=O)c2ccco2)CC1" ?
-9.47

Request: "C/C(=N\NC(=O)c1ccn(C)n1)c1ccc(NC(=O)c2cccc(F)c2)cc1"
8.11
